# test.method.notes: in vitro
# condition.parameters: human, hela cells, % viability
reported.property: viability at 28.5 h, 10 µM
Be sure to follow the number with its unit.

[[record]]
molecule = "Cc1cc(C)c(C(=O)NC2CCN(c3ncccc3C#N)CC2)c(=O)[nH]1"
result_value = "110%"

[[record]]
molecule = "Cc1ccc(OCc2cccc3nsnc23)cc1[N+](=O)[O-]"
result_value = "98.2%"

[[record]]
molecule = "O=C(O)c1ccc(Cl)c(S(=O)(=O)NCc2ccco2)c1"
result_value = "105%"


Cc1cc(C(=O)C(C)Sc2nnc(N)s2)c(C)n1-c1ccccc1 (stereo not shown) yielded viability at 28.5 h, 10 µM of 87%

"CNC(=O)CSc1nc2ccccc2nc1NC(C)C" yielded viability at 28.5 h, 10 µM of 99.7%

O=C(N/N=C/c1ccncc1)C1CC1C(=O)N/N=C/c1ccncc1 (stereo not shown) yielded viability at 28.5 h, 10 µM of 90.2%

"Cc1nnc(SCC(=O)N2c3ccccc3Sc3ccccc32)n1N" yielded viability at 28.5 h, 10 µM of 96.5%

"COc1cccc(NC(=O)c2ccc(-c3ccsc3)nc2NCC2CC2)c1" yielded viability at 28.5 h, 10 µM of 90.5%

"O=C(CC1=C(O)C(=O)c2ccccc2C1=O)c1ccccc1" yielded viability at 28.5 h, 10 µM of 80.5%

Cc1cc(COc2nc3ccccc3nc2NCCC(C)O)no1 (stereo not shown) yielded viability at 28.5 h, 10 µM of 95.7%
